Data provenance: patent US7799775B2

# assayed.target: 5-HT1A receptor (Rattus norvegicus, UniProt P19327)
# Construct: from tissue; host or cells: whole animal (SD male rats), behavioural read-out
# Sequence (P19327 whole entry): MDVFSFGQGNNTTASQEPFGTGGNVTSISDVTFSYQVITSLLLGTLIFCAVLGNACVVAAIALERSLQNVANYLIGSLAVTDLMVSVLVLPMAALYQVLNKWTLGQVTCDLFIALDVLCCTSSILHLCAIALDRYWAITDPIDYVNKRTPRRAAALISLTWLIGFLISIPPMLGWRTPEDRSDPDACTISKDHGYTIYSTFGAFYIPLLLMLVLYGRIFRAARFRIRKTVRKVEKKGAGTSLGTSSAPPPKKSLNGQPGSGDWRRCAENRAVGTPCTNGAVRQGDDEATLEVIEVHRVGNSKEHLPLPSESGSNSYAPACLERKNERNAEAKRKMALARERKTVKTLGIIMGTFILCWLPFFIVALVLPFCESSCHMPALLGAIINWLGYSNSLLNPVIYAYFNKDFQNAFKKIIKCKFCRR
# experimental.protocol: Measurement of 5-HT1A receptor agonistic action on rats (in vivo): lower lip retraction and flat body posture
# measurement.parameters: SD male rats, 10 mg/kg intraperitoneal; maximum of group evaluation points, 4 grades 0-3, observed 5-30 min after administration
Given measured 5-HT1A Receptor Agonistic Action on Rats, LLR, output Satisfied if it is greater than or equal to 2 and Not satisfied if not.

Below, 6 compounds whose answers are already recorded.
[[record]]
structure_string = "c1cc2sccc2c(N2CCN3CCC[C@H]3C2)n1"
class_label = "Not satisfied"

[[record]]
structure_string = "Nn1c(CCCCN2CCN(c3ccc4ccccc4n3)CC2)nc2cccc(Cl)c2c1=O"
class_label = "Not satisfied"

[[record]]
structure_string = "COc1ccc2ccnc(N3CCN4CCC[C@H]4C3)c2c1"
class_label = "Satisfied"

[[record]]
structure_string = "CCn1c(CCCCN2CCN(c3ccc4ccccc4n3)CC2)nc2c(c1=O)CCCC2"
class_label = "Not satisfied"

[[record]]
structure_string = "Cn1c(CCCCN2CCN(c3ccc4ccccc4n3)CC2)nc2ccccc2c1=O"
class_label = "Not satisfied"

[[record]]
structure_string = "Cc1cc(N2CCN(CCCCc3nc4c(c(=O)n3C)CCCC4)CC2)nc2ccccc12"
class_label = "Satisfied"


Assess whether reported 5-HT1A Receptor Agonistic Action on Rats, LLR for "Nn1c(CCCCN2CCN(c3ccc4ccccc4n3)CC2)nc2c(c1=O)CCCC2" sits at 2 or higher.
Not satisfied

Assess whether reported 5-HT1A Receptor Agonistic Action on Rats, LLR for "Cn1c(CCCCN2CCN(c3ccc4ccccc4n3)CC2)nc2c(c1=O)CCCC2" sits at 2 or higher.
Satisfied

Assess whether reported 5-HT1A Receptor Agonistic Action on Rats, LLR for "COc1ccc2ccnc(N3CCNCC3)c2c1" sits at 2 or higher.
Satisfied

Assess whether reported 5-HT1A Receptor Agonistic Action on Rats, LLR for "Nn1c(CCCCN2CCN(c3ccc4ccccc4n3)CC2)nc2ccsc2c1=O" sits at 2 or higher.
Satisfied

Assess whether reported 5-HT1A Receptor Agonistic Action on Rats, LLR for "c1cc2ccsc2c(N2CCN3CCC[C@H]3C2)n1" sits at 2 or higher.
Satisfied

----------
# assayed.target: human 5-HT3 receptor (Homo sapiens, UniProt P46098)
# Construct: purchased BIOLINKS K.K; host or cells: HEK-293 cells (membrane preparation)
# Sequence (P46098 24-478): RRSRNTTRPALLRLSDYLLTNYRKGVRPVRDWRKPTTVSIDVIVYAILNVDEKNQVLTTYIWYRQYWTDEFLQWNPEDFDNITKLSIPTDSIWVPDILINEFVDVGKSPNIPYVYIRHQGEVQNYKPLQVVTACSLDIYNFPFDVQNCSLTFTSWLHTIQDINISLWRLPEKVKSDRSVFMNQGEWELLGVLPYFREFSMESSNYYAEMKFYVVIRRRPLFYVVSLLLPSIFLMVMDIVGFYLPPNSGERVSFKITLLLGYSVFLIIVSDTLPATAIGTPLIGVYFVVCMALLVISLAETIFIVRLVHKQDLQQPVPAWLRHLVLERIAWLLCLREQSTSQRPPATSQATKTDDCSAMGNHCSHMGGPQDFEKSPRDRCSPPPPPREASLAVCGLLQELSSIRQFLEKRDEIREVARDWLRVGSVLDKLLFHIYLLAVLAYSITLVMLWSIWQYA
# experimental.protocol: Measurement of affinity to human 5-HT3 receptor (in vitro), [3H]BRL-43694 binding
# measurement.parameters: test compound 100 nmols/L; [3H]BRL-43694 0.5 nmols/L; HEK-293 cell membrane expressing human 5-HT3 receptor; read-out: Percent Inhibition (%) on Each Receptor's Binding at 10^−7M, 5-HT3
Given measured inhibition at 0.1 µM, output Yes if it is greater than or equal to 90% and No if not.

Below, 5 compounds whose answers are already recorded.
[[record]]
compound = "c1ccc(CO[C@@H]2C[C@H]3CN(c4nccc5sccc45)CCN3C2)cc1"
class_label = "No"

[[record]]
compound = "CC1CCc2nc(CCCCN3CCN(c4ccc5ccccc5n4)CC3)n(C)c(=O)c2C1 (stereo not drawn)"
class_label = "Yes"

[[record]]
compound = "Cc1sc2nc(SCCCN3CCN(c4ccc5ccccc5n4)CC3)n(N)c(=O)c2c1C"
class_label = "Yes"

[[record]]
compound = "c1cc2sccc2c(N2CCN3CCCCC3C2)n1 (stereo not drawn)"
class_label = "No"

[[record]]
compound = "O=c1c2c(nc(CCCCN3CCN(c4nc5ccccc5s4)CC3)n1Cc1ccccc1)CCCC2"
class_label = "No"


Assess whether reported inhibition at 0.1 µM for "Cn1c(CCCCN2CCN(c3nc4ccccc4s3)CC2)nc2c(c1=O)CCCC2" sits at 90% or higher.
No

Assess whether reported inhibition at 0.1 µM for "Cn1c(CCCCN2CCN(c3ccc4ccccc4n3)CC2)nc2ccc(Br)cc2c1=O" sits at 90% or higher.
No

Assess whether reported inhibition at 0.1 µM for "COc1ccc2ccnc(N3CCN4CCC[C@H]4C3)c2c1" sits at 90% or higher.
Yes

Assess whether reported inhibition at 0.1 µM for "Nn1c(NCCCN2CCN(c3ccc4ccccc4n3)CC2)nc2c(c1=O)CCCC2" sits at 90% or higher.
No

Assess whether reported inhibition at 0.1 µM for "Fc1ccc(COc2ccc3ccnc(N4CCNCC4)c3c2)cc1" sits at 90% or higher.
No

Assess whether reported inhibition at 0.1 µM for "Brc1ccc2ccnc(N3CCNCC3)c2c1" sits at 90% or higher.
Yes

Assess whether reported inhibition at 0.1 µM for "Clc1ccc2ccnc(N3CCNCC3)c2c1" sits at 90% or higher.
Yes

Assess whether reported inhibition at 0.1 µM for "Cn1c(CCCN2CCN(c3ccc4ccccc4n3)CC2)nc2c(c1=O)CCCC2" sits at 90% or higher.
No
